target: KDR (Homo sapiens (Human))
Sequence (P35968 20-1356): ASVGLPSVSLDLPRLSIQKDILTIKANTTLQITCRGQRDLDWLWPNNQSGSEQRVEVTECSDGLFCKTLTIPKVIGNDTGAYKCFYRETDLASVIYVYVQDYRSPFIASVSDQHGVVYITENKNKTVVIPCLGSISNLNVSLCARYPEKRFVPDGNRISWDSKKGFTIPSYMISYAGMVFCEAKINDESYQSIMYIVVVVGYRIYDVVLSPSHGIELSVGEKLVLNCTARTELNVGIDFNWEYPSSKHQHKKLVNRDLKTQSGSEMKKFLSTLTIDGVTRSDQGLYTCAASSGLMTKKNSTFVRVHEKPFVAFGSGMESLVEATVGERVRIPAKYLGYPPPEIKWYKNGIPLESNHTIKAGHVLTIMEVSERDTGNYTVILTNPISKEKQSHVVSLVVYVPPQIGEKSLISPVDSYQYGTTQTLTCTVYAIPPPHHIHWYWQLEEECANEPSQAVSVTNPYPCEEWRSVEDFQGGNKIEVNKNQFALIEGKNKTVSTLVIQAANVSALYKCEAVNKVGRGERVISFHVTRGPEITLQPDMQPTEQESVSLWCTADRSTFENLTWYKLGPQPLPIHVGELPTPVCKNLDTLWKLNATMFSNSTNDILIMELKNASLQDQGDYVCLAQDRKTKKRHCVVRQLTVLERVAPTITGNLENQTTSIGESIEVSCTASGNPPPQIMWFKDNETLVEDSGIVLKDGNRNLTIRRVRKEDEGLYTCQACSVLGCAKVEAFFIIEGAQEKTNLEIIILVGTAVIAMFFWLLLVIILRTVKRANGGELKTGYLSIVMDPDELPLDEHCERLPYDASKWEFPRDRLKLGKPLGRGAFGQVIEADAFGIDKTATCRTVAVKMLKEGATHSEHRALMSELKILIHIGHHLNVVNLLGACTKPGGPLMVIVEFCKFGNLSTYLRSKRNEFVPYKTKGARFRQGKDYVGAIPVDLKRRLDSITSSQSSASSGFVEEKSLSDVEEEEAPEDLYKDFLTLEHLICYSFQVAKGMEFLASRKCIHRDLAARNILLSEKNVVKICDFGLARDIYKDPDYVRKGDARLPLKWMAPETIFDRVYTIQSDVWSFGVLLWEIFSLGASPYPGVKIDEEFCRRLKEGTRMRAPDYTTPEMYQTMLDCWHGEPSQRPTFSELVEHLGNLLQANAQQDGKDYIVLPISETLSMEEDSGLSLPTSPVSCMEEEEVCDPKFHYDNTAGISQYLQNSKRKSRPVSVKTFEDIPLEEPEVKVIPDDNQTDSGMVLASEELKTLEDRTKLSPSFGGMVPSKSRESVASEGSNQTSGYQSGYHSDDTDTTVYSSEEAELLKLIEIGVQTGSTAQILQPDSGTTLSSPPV
measurement.protocol: KDR autophosphorylation ELISA in HUVEC cells
study.conditions: cellular, VEGF165 stimulated
pIC50: −log10 of the molar value.
measured.metric: pIC50

In the examples that follow, each entry is paired with its recorded pIC50.
**Query** Could you share which pIC50 value was measured for `O=C(NOCCO)c1ccc2c(Oc3ccc(NC(=O)C4(C(=O)Nc5ccc(F)cc5)CC4)cc3F)ccnc2c1` ?
**Result** 7.00 to 8.00

**Query** Could you share which pIC50 value was measured for `COc1cc2nccc(Oc3ccc(NC(=O)C4(C(=O)Nc5ccc(F)cc5)CC4)cc3)c2cc1C(=O)NN` ?
**Result** ≥ 8.00

**Query** Could you share which pIC50 value was measured for `COc1cc2nccc(Oc3ccc(NC(=O)C4(C(=O)Nc5ccc(F)cc5)CC4)cc3)c2cc1C(N)=O` ?
**Result** ≥ 8.00

**Query** Could you share which pIC50 value was measured for `COc1cc2nccc(Oc3ccc(NC(=O)C4(C(=O)Nc5ccc(F)cc5)CC4)cc3)c2cc1-c1cn[nH]c1` ?
**Result** ≥ 8.00

**Query** Could you share which pIC50 value was measured for `COC(=O)c1cc2nccc(Oc3ccc(NC(=O)C4(C(=O)Nc5ccc(F)cc5)CC4)cc3)c2cc1OC` ?
**Result** ≥ 8.00

***
**Query** Could you share which pIC50 value was measured for `O=C(NOC[C@H](O)CO)c1ccc2c(Oc3ccc(NC(=O)C4(C(=O)Nc5ccc(F)cc5)CC4)cc3)ccnc2c1` ?
**Result** 6.52 to 7.00

**Query** Could you share which pIC50 value was measured for `CNS(=O)(=O)c1cc2c(Oc3ccc(NC(=O)C4(C(=O)Nc5ccc(F)cc5)CC4)cc3)ccnc2cc1OC` ?
**Result** 7.00 to 8.00

**Query** Could you share which pIC50 value was measured for `NC(=O)c1cc2c(Oc3ccc(NC(=O)C4(C(=O)Nc5ccc(F)cc5)CC4)cc3)ccnc2cc1NCCCN1CCOCC1` ?
**Result** 7.00 to 8.00

**Query** Could you share which pIC50 value was measured for `COc1cc2nccc(Oc3ccc(NC(=O)C4(C(=O)Nc5ccc(F)cc5)CC4)cc3)c2cc1-c1ncc[nH]1` ?
**Result** ≥ 8.00

**Query** Could you share which pIC50 value was measured for CC(O)COc1cc2nccc(Oc3ccc(NC(=O)C4(C(=O)Nc5ccc(F)cc5)CC4)cc3)c2cc1C(N)=O (stereo not shown) ?
**Result** ≥ 8.00

**Query** Could you share which pIC50 value was measured for `COc1cc2nccc(Oc3ccc(NC(=O)C4(C(=O)Nc5ccc(F)cc5)CC4)cc3)c2cc1C(=O)NO` ?
**Result** 7.00 to 8.00

**Query** Could you share which pIC50 value was measured for `COc1cc2nccc(Oc3ccc(NC(=O)C4(C(=O)Nc5ccc(F)cc5)CC4)cc3Cl)c2cc1C(N)=O` ?
**Result** ≥ 8.00

**Query** Could you share which pIC50 value was measured for `COc1cc2nccc(Oc3ccc(NC(=O)C4(C(=O)Nc5ccc(F)cc5)CC4)cc3)c2cc1N1CCC1` ?
**Result** 7.00 to 8.00

**Query** Could you share which pIC50 value was measured for `CNC(=O)c1cc2c(Oc3ccc(NC(=O)C4(C(=O)Nc5ccc(F)cc5)CC4)cc3)ccnc2cc1OC` ?
**Result** ≥ 8.00

**Query** Could you share which pIC50 value was measured for `CNC(=O)c1cc2nccc(Oc3c(F)cc(NC(=O)C4(C(=O)Nc5ccc(F)cc5)CC4)c(F)c3F)c2cc1C` ?
**Result** < 6.52

**Query** Could you share which pIC50 value was measured for `COc1cc2nccc(Oc3ccc(NC(=O)C4(C(=O)Nc5ccc(F)cc5)CC4)cc3)c2cc1-c1ccc(C)o1` ?
**Result** 7.00 to 8.00

**Query** Could you share which pIC50 value was measured for `NS(=O)(=O)c1ccc2c(Oc3ccc(NC(=O)C4(C(=O)Nc5ccc(F)cc5)CC4)cc3)ccnc2c1` ?
**Result** < 6.52

Hey, just so you know, these numbers are from patent US11542259B2.
